Just for reference, patent US6399610B1 is where these values come from.

# Test summary: Bioavailability of levosimendan following buccal and intravenous administration in dogs (plasma concentration)
# Type: in vivo, beagle dogs
# Experimental setup: beagle, dog, plasma, iv, 0.02 mg/kg, dog plasma, iv 0.02 mg/kg, 120 min, Dog 2
Assay metric: concentration at 120 min (ng/mL)

CC1CC(=O)NN=C1c1ccc(NN=C(C#N)C#N)cc1 (single isomer, unassigned; (-)) [Levosimendan] = 15

* * *

# Test summary: Bioavailability of levosimendan following buccal and intravenous administration in dogs (plasma concentration)
# Assay type: in vivo, beagle dogs
# Experimental setup: beagle, dog, plasma, iv, 0.02 mg/kg, dog plasma, iv 0.02 mg/kg, 10 min, Dog 1
Assay metric: concentration at 10 min (ng/mL)

CC1CC(=O)NN=C1c1ccc(NN=C(C#N)C#N)cc1 (single isomer, unassigned; (-)) [Levosimendan] = 128
